Kindly supply the reported GI50 values for the records listed here.
Test system: SF-539
Experiment: NCI tumour cell line growth inhibition, 48 h
Calls of active or inactive are those of the source. No stated cut-off is given here; in the data, active = GI50 up to about 1.1 µM and inactive = higher.

See these solved cases before continuing.
- Compound: "CNc1cc(N)ccc1C(=O)N1CCC[C@H]1CO"
  Assay Target: "SF-539"
  GI50: "> 100 µM (inactive)"
- Compound: "Cc1cccc(C)c1NC(=O)C(Cc1c[nH]c2ccccc12)NC(=O)OCc1ccccc1 (stereo not given)"
  Assay Target: "SF-539"
  GI50: "20.2 µM (inactive)"
- Compound: "O=[N+]([O-])c1ccc(Cl)cc1C1SCc2nc3ccccc3n21 (stereo not given)"
  Assay Target: "SF-539"
  GI50: "> 100 µM (inactive)"
- Compound: "O=C1[C@@H]2C(c3ccccc3F)=NO[C@@H]2C(=O)N1c1ccc(Cc2ccc(N3C(=O)[C@H]4C(c5ccccc5F)=NO[C@H]4C3=O)cc2)cc1"
  Assay Target: "SF-539"
  GI50: "> 100 µM (inactive)"

Now consider a different compound.
input: I am curious: what GI50 value has been reported for "O=[N+]([O-])C(/C(Cl)=C(/Cl)N1CCCCC1)=C1\NCCO1" ?
output: > 100 µM (inactive)
